Test: SK-BR-3 proliferation inhibitors, primary screen, cell-based, human, 24 h (AID 847);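 note: 100% = median untreated cell wells and 0% = median positive control drug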
Settings: SK-BR-3 viability, CellTiter-Glo ATP luminescence, at 10 µM, hits give low values
Out of some 41,000 compounds screened, about 190 (0.46%) were called active. Many of the other results were omitted from the sample, so actives are more common in it than they were.
ASSAY_ENDPOINT: viability

Example entries and their recorded answers appear below.
stdin: Fill blank: measured viability of the compound COC(=O)c1cn(-c2ccccc2)nc1-c1cccnc1 is ____.
stdout: 119% (inactive)

stdin: Here is the next compound: COc1ccc(CCNC(=O)CSc2nc(C)nc3c2oc2ccccc23)cc1OC
stdout: 131% (inactive)

stdin: Here is the next compound: Cc1ccc(S(=O)(=O)NCc2nc3ccccc3c(=O)n2N)cc1
stdout: 87.3% (inactive)

Record viability for all entries; do not skip any.
1. Cc1ccc(S(=O)(=O)N2CCC(C(=O)N[C@@H](C)C(=O)NCCc3ccccc3)CC2)cc1
2. CC1Cc2ccccc2N1C(=O)CSc1nnc(-c2ccc(S(=O)(=O)N3CCCCC3)cc2)o1 (stereo not drawn)
3. Cc1nc2nc(COc3ccccc3)[nH]n2c(=O)c1Cc1ccccc1
4. CCS(=O)(=O)NCCc1ccc(OC)c(OC)c1
5. CCOC(=O)c1ccc(N2C(=O)CC(N3CC(C)OC(C)C3)C2=O)cc1 (stereo not drawn)
6. O=C(Nc1ccccc1N1CCN(C(=O)c2ccccc2)CC1)c1ccc2c(c1)OCO2
7. O=S(=O)(O)c1nc2ccccc2n1Cc1ccc(Cl)cc1Cl

stdout:
["100% (inactive)", "96% (inactive)", "85.2% (inactive)", "85.1% (inactive)", "82.9% (inactive)", "68% (inactive)", "98.8% (inactive)"]

Record viability for all entries; do not skip any.
1. Cc1cc(=O)[nH]c(SCC(N)=O)c1C#N
2. Cn1c2c(c(=O)n(C)c1=O)CN(Cc1ccco1)CN2
3. CCc1nc2oc3ccccc3c(=O)c2c(=O)n1Cc1ccc(OC)cc1
4. CCOc1ccccc1NC(=O)CCc1ccc(C)o1
5. CC1(C)CC(=O)C(C2=NC(C)(C)Cc3ccccc32)=C(O)C1

stdout:
["121% (inactive)", "83.8% (inactive)", "84.3% (inactive)", "103% (inactive)", "99.5% (inactive)"]
